System: pAkt
Protocol Text: IGF-1R autophosphorylation assay (Western blot), pAkt
Type: cell-based, human
Study Conditions: Colo205 cells, 1 h treatment, IGF-1 50 ng/mL stimulation; listed as Amorphous form
Experimental: Cells were grown and maintained in a medium containing 10% FBS. […] The band density was then estimated using the software Image J. From the band densities of the various proteins at different concentrations of Compound I, the IC50 concentrations for various proteins were calculated, and are enumerated in Table 3.
Measured Endpoint: IC50 (nM)

{"columns": ["Molecule", "Target", "Unit Text", "Test Value"],
 "data": [
  ["CCOC(=O)N1CCC(Nc2cc(Cl)cc3c(S(=O)(=O)N4CCO[C@H](COc5ccccc5)C4)c(C(N)=O)[nH]c23)CC1 [Compound I (amorphous form)]", "pAkt", "nM", 620]
]}
